Each recorded value in this set is attributed to ChEMBL document CHEMBL3272187.

# method: Aqueous stability of the compound in 100 mM Na2HPO4 buffer assessed as half life at 2 mM at pH 7.2 at 37 degC by ferric chloride assay
# Format: physicochemical
readout.name: half-life at 2000 µM (min)
Give a bare numeral; the unit min is implied.

Inquiry: Give the measured half-life at 2000 µM of CC(=O)N(O)c1ccc(O)cc1 .
Reply text: 21

====

# method: Aqueous stability of the compound in 100 mM Na2HPO4 buffer assessed as half life at 2 mM at pH 8.0 at 37 degC by ferric chloride assay
# Type: physicochemical
readout.name: half-life at 2000 µM (min)
Give a bare numeral; the unit min is implied.

Inquiry: Give the measured half-life at 2000 µM of CC(=O)N(O)c1ccc(O)cc1 .
Reply text: 9.8

====

# method: Aqueous stability of the compound in 100 mM Na2HPO4 buffer assessed as half life at 2 mM at pH 6.6 at 37 degC by ferric chloride assay
# Assay type: physicochemical
readout.name: half-life at 2000 µM

Inquiry: Give the measured half-life at 2000 µM of CC(=O)N(O)c1ccc(O)cc1 .
Reply text: 2.5 h
